Target Of Assay: C-RAF (Homo sapiens, UniProt P04049)
Construct: purchased Reaction Biology Corporation (Malvern, Pa.), contract assay service
Sequence (P04049 whole entry): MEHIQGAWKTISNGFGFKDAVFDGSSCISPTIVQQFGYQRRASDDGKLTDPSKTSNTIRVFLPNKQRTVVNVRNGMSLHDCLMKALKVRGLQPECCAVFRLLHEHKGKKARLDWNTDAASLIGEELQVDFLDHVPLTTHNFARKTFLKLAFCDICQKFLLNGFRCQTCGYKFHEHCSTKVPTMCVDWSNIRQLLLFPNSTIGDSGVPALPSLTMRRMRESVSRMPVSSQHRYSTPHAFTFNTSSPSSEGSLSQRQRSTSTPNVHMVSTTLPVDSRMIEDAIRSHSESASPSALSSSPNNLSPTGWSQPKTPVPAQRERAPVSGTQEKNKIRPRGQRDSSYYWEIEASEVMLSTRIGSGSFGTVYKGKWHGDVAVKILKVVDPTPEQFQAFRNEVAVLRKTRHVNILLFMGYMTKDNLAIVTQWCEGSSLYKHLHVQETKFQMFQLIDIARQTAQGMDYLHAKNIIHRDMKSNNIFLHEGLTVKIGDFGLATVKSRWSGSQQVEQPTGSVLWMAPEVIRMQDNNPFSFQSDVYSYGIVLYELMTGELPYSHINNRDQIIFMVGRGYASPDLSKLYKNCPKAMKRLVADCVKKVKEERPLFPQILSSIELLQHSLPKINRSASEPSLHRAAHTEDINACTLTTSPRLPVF
Run Description: Kinase inhibition assay (Reaction Biology Corporation)
Type: biochemical
Study Conditions: Table 2; 10 μM ATP, 10-point curve
Endpoint Name: IC50 (nM)

These solved cases illustrate the format of a correct answer.
# Chemical Smiles, Val
records = [
    ("Cc1ccc(C(=O)Nc2cc(C(F)(F)F)ccc2NCCN2CCCC2)cc1C#Cc1cnc2ccccn12", 24.3),
    ("CN1CCN(Cc2ccc(NC(=O)c3ccc(F)c(C#Cc4cnc5ccccn45)c3)cc2C(F)(F)F)CC1", 51.7),
    ("CC(C)N1CCN(Cc2ccc(NC(=O)c3cncc(C#Cc4cnc5cnccn45)c3)cc2C(F)(F)F)CC1", 14.4),
    ("Cc1ccc(C(=O)Nc2cc(-n3ccnc3)cc(C(F)(F)F)c2)cc1C#Cc1cnc2c(N)cccn12", 51.1),
    ("Cc1ccc(C(=O)Nc2cc(C(F)(F)F)ccn2)cc1C#Cc1cnc2c(N)cccn12", 4.78),
]

I. CNC(=O)CNc1ccc(NC(=O)c2ccc(C)c(C#Cc3cnc4ccccn34)c2)cc1C(F)(F)F
II. Cc1ccc(C(=O)Nc2cc(C(C)(C)C)on2)cc1C#Cc1cnc2cccnn12
Enquiry: Please indicate which has the smaller reported IC50: I , or II . // respond with label for picked entry
Return: II
(II: 4.27 nM, I: 29.5 nM)
